# Assay procedure: gradient 5% acetonitrile 3 min, to 50% in 2 min, to 85% in 15 min, held 3 min, 100 µL/min
# Test context: column: Zorbax Extend-C18 2.1 x 50 mm; eluents: water / acetonitrile, 0.1% formic acid
Would you mind labelling by RP-LC retention time? At or over 800 s is TRUE, under is FALSE.

[[record]]
compound = "COc1ccc(C)cc1NC(=O)Cn1nc2c(Oc3cccc(F)c3)nccn2c1=O"
assigned_label = "TRUE"

[[record]]
compound = "Cc1nnc2n1CCN(C(=O)c1cc(-c3ccccc3)n[nH]1)C2"
assigned_label = "FALSE"

[[record]]
compound = "CCn1cc(CCNC(C)=O)c2cccnc21"
assigned_label = "FALSE"

[[record]]
compound = "COc1ccc(-c2nc(C)c(C(=O)O)s2)cc1OC"
assigned_label = "FALSE"

[[record]]
compound = "CN1C(=O)[C@H]2CN(Cc3cccc(C#N)c3)C[C@H]2C1=O"
assigned_label = "FALSE"

[[record]]
compound = "CCN1CCN(C(=O)c2c(C)sc3ccn(CC(C)C)c(=O)c23)CC1"
assigned_label = "FALSE"

[[record]]
compound = "CCOC(=O)c1[nH]c(C)c(C(=O)N2CCC(CC(=O)NC3CCCC3)CC2)c1C"
assigned_label = "FALSE"

[[record]]
compound = "COc1ccc(NC(=O)CN2CCC(C(=O)NCc3ccc(F)cc3F)CC2)c(OC)c1"
assigned_label = "FALSE"

[[record]]
compound = "CCCNC(=O)CC1Sc2ncccc2N(CC(C)C)C1=O (stereo not given)"
assigned_label = "FALSE"

[[record]]
compound = "O=C(N[C@@H]1CN(c2ncccn2)C[C@H]1CO)c1nccc2ccccc12"
assigned_label = "FALSE"

[[record]]
compound = "Cc1cc(=O)n(CC(=O)NCc2ccc(F)cc2)c(N2CCOCC2)n1"
assigned_label = "FALSE"

[[record]]
compound = "COc1nc2ccccc2nc1N1CCCC(C(=O)NC2CCCCC2C)C1 (stereo not given)"
assigned_label = "TRUE"

[[record]]
compound = "COc1ccc(NC(=O)Cn2nc3cc(-c4ccccc4)nc(C)n3c2=O)cc1OC"
assigned_label = "TRUE"

[[record]]
compound = "O=C(NCCN1CCCCC1)c1nc2ccccn2c1-c1ccsc1"
assigned_label = "FALSE"

[[record]]
compound = "Cc1cccc(Sc2nccnc2N2CCCC(C(=O)NCCCc3ccccc3)C2)c1 (stereo not given)"
assigned_label = "TRUE"

[[record]]
compound = "Cc1cccc(-c2noc(Cn3c(=O)n(-c4ccccc4F)c(=O)c4sccc43)n2)c1"
assigned_label = "TRUE"

[[record]]
compound = "Cc1ccc(NC(=O)C2CCCN(S(=O)(=O)c3c[nH]c(C(=O)N4CCCC4)c3)C2)cc1Cl (stereo not given)"
assigned_label = "TRUE"


src = the METLIN SMRT retention time set (Domingo-Almenara et al. 2019)
